Consider the following compounds; for each one, report its CYP inhibition (% of control activity) CYP1A2.
# TARGET OR TEST SYSTEM: CYP1A2 (Homo sapiens, UniProt P05177)
# Sequence (P05177 1-516): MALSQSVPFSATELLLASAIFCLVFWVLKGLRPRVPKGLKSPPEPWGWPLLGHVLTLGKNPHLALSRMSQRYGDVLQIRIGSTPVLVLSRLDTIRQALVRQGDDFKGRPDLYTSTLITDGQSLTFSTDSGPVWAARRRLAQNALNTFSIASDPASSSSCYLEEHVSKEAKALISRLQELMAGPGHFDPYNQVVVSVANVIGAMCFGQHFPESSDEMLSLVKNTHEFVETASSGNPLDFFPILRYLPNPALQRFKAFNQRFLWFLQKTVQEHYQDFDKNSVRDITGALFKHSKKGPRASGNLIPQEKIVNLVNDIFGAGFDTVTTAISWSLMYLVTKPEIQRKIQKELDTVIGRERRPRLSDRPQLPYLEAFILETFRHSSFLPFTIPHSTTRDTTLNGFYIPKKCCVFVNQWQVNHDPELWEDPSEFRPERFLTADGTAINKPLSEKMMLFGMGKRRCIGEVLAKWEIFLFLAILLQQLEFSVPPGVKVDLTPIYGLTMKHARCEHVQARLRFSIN
# REPORTED CONDITIONS: microsomes, 10 µM
Numbered stars: 1 amine (or outer) side, 2 acyl side, 3 side chain; on linkers, the order of the positions; unused ones are H or OH. Bridge positions count the residues as written; N and C are the ends. Square brackets hold non-standard residues; d marks the D form. Peptide text beside a SMILES is read from it. ξ: configuration not given here. ξhAlg = O=C(C(CCC=[*:3])N[*:1])[*:2]; AllylGly = C=CC[CH](N)C(=O)O

Use these answered entries as a reference point.
COMPOUND	OBSERVED RESULT
NCCCCC(NC(=O)C(Cc1ccc(O)cc1)NC(=O)C(Cc1ccc(O)cc1)NC(=O)C(CC(=O)O)NC(=O)CN)C(N)=O (stereo not drawn) [DS-35, NH2-GDYYK-NH2] (H-GDYYK-NH2; configuration not given here)	77.7 % of control activity
CC(C)CC(NC(=O)CN)C(=O)N(C)C(Cc1ccc(O)cc1)C(=O)NC(Cc1ccc(O)cc1)C(=O)NC(Cc1ccccc1)C(N)=O (stereo not drawn)	80.5 % of control activity
CC(=O)NC(CC(=O)O)C(=O)NC(Cc1ccc(O)cc1)C(=O)NC(Cc1ccc(O)cc1)C(=O)NC(Cc1ccccc1)C(=O)O (stereo not drawn) [DS-28, AcNH-DYYF-OH] (Ac-DYYF-OH; configuration not given here)	81.7 % of control activity
CC(=O)N1CCN(c2ccc(OCC3COC(Cn4ccnc4)(c4ccc(Cl)cc4Cl)O3)cc2)CC1 (stereo not drawn) [Ketoconazole, reference compound]	97.2 % of control activity
CC(C)CC1NC(=O)C(N)CC/C=C\CC(C(N)=O)NC(=O)C(Cc2ccc(O)cc2)NC(=O)C(Cc2ccc(O)cc2)NC1=O (stereo not drawn) [DS-73] (H-[ξhAlg]LYY[AllylGly]-NH2; staple (Z) 1-5; configuration not given here)	82.7 % of control activity

Could you now consider this next compound?
Looking up CC(C)C[C@H](NC(=O)CN)C(=O)N[C@@H](Cc1ccc(O)cc1)C(=O)N[C@@H](Cc1ccc(O)cc1)C(=O)N[C@@H](Cc1ccccc1)C(=O)O [APN5, NH2-GLYYF-OH, reference compound] , I found its CYP inhibition (% of control activity) CYP1A2 recorded as 88.8 % of control activity

* * *

# TARGET OR TEST SYSTEM: CYP2C19 (Homo sapiens, UniProt P33261)
# Sequence (P33261 whole entry): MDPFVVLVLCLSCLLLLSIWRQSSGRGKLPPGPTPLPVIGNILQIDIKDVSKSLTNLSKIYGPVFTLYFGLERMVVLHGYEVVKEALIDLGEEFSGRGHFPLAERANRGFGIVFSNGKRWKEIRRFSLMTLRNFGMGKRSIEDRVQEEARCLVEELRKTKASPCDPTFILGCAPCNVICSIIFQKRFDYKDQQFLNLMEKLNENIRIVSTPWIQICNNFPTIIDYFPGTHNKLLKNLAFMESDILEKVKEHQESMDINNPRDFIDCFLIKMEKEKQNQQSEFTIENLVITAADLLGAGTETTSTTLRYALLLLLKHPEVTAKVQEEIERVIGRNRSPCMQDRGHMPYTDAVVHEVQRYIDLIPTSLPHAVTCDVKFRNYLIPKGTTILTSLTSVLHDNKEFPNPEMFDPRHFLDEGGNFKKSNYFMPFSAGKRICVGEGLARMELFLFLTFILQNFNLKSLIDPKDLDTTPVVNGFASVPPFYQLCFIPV
# REPORTED CONDITIONS: microsomes, 10 µM
Numbered stars: 1 amine (or outer) side, 2 acyl side, 3 side chain; on linkers, the order of the positions; unused ones are H or OH. Bridge positions count the residues as written; N and C are the ends. Square brackets hold non-standard residues; d marks the D form. Peptide text beside a SMILES is read from it. ξ: configuration not given here. ξhAlg = O=C(C(CCC=[*:3])N[*:1])[*:2]; AllylGly = C=CC[CH](N)C(=O)O
Kindly supply the reported CYP inhibition (% of control activity) CYP2C19 values for the records listed here.

Fill in CYP inhibition (% of control activity) CYP2C19 for each of the 2 compounds listed.
1. CC(C)CC(NC(=O)CN)C(=O)N(C)C(Cc1ccc(O)cc1)C(=O)NC(Cc1ccc(O)cc1)C(=O)NC(Cc1ccccc1)C(N)=O (stereo not shown)
2. CC(=O)N1CCN(c2ccc(OCC3COC(Cn4ccnc4)(c4ccc(Cl)cc4Cl)O3)cc2)CC1 (stereo not shown) [Ketoconazole, reference compound]

## Result
73.5 % of control activity
>100 % of control activity

Value sought for every listed compound: CYP inhibition (% of control activity) CYP2C19.
1. NCCCCC(NC(=O)C(Cc1ccc(O)cc1)NC(=O)C(Cc1ccc(O)cc1)NC(=O)C(CC(=O)O)NC(=O)CN)C(N)=O (stereo not shown) [DS-35, NH2-GDYYK-NH2] (H-GDYYK-NH2; configuration not given here)
2. CC(C)CC1NC(=O)C(N)CC/C=C\CC(C(N)=O)NC(=O)C(Cc2ccc(O)cc2)NC(=O)C(Cc2ccc(O)cc2)NC1=O (stereo not shown) [DS-73] (H-[ξhAlg]LYY[AllylGly]-NH2; staple (Z) 1-5; configuration not given here)
3. O=C(COc1ccc(C(=O)c2ccccc2)cc1)NC1CCN(Cc2ccccc2)CC1 [DS-43, adiporon, reference compound]
4. CC(=O)NC(CC(=O)O)C(=O)NC(Cc1ccc(O)cc1)C(=O)NC(Cc1ccc(O)cc1)C(=O)NC(Cc1ccccc1)C(=O)O (stereo not shown) [DS-28, AcNH-DYYF-OH] (Ac-DYYF-OH; configuration not given here)

## Result
["4.1 % of control activity", "85.1 % of control activity", "66.0 % of control activity", "87.2 % of control activity"]

// CYP inhibition (% of control activity) CYP2C19 value for CC(C)C[C@H](NC(=O)CN)C(=O)N[C@@H](Cc1ccc(O)cc1)C(=O)N[C@@H](Cc1ccc(O)cc1)C(=O)N[C@@H](Cc1ccccc1)C(=O)O [APN5, NH2-GLYYF-OH, reference compound] : 98.5 % of control activity

* * *

# TEST PROTOCOL: Plasma stability test, human plasma
# REPORTED CONDITIONS: human, plasma
PROPERTY: remaining at 0.5 h, 1 μM (%)
Give bare numbers, in %.

// CC(C)CC(NC(=O)CN)C(=O)NC(Cc1ccc(O)cc1)C(=O)NC(Cc1ccc(O)cc1)C(=O)N(C)C(Cc1ccccc1)C(N)=O (centres unmarked) : remaining at 0.5 h, 1 μM value = 1.1

* * *

# TEST PROTOCOL: Metabolic stability test, rat liver microsomes
# Assay type: in vitro ADME
# REPORTED CONDITIONS: pH 7.4, rat liver microsomes 0.5 mg/ml, NADPH, 37° C., 30 m
Numbered stars: 1 amine (or outer) side, 2 acyl side, 3 side chain; on linkers, the order of the positions; unused ones are H or OH. Bridge positions count the residues as written; N and C are the ends. Square brackets hold non-standard residues; d marks the D form. Peptide text beside a SMILES is read from it. ξ: configuration not given here. ξhAlg = O=C(C(CCC=[*:3])N[*:1])[*:2]; AllylGly = C=CC[CH](N)C(=O)O
Rule: measured remaining at 0.5 h, 1 μM below 70% gets 1; anything equal to or greater than 70% gets 0.

COMPOUND	CLASS
CC(=O)NC(CC(=O)O)C(=O)NC(Cc1ccc(O)cc1)C(=O)NC(Cc1ccc(O)cc1)C(=O)NC(Cc1ccccc1)C(=O)O (centres unmarked) [DS-28, AcNH-DYYF-OH] (Ac-DYYF-OH; configuration not given here)	0
CC(C)C[C@H](NC(=O)CN)C(=O)N[C@@H](Cc1ccc(O)cc1)C(=O)N[C@@H](Cc1ccc(O)cc1)C(=O)N[C@@H](Cc1ccccc1)C(=O)O [APN5, NH2-GLYYF-OH, reference compound]	1
Cc1cc(CC(NC(=O)C(CC(=O)O)NC(=O)CN)C(=O)NC(Cc2ccc(O)cc2)C(=O)NC(Cc2ccccc2)C(N)=O)cc(C)c1O (centres unmarked)	0

## Task Does the reported remaining at 0.5 h, 1 μM of CC(C)CC1NC(=O)C(N)CC/C=C\CC(C(N)=O)NC(=O)C(Cc2ccc(O)cc2)NC(=O)C(Cc2ccc(O)cc2)NC1=O (centres unmarked) [DS-73] (H-[ξhAlg]LYY[AllylGly]-NH2; staple (Z) 1-5; configuration not given here) stay below 70%?
## Result 1

## Task Just wondering, is remaining at 0.5 h, 1 μM of CC(C)CC(NC(=O)CN)C(=O)NC(Cc1ccc(O)cc1)C(=O)NC(Cc1ccc(O)cc1)C(=O)N(C)C(Cc1ccccc1)C(N)=O (centres unmarked) below 70%?
## Result 1
